# System: MS2 coat protein
# assay-remarks: apparent KD of MS2 coat protein; designed switch direction (-1 OFF switch, 1 ON switch): 1; higher = weaker reporter binding
# reported-conditions: input ligand: FMN 200 uM
measured-attribute: apparent KD of MS2 coat protein (µM)

>>> endpoint_result("AUUCGAUAGAUAGGAUAUCACCAUACAUGAGGAUCACCCAUGUUGACCACGCUGGUUAUUCAUACUGAGAAGGAUCUUGAUGAC [JR_SSNG2_Sub005] (Eterna round: R96, puzzle: Same State NG 2)")
0.0278
>>> endpoint_result("AUAGUUUCCGAAGGAUAUGAUGAGGAUCACCCAUCAGAAGGUUGGCUAUUGGGCUGACAUGAGGAUCACCCAUGUUCCGGUGUU (Eterna round: R96, puzzle: Same State NG 1)")
0.0337
>>> endpoint_result("GGAAUAUUUACAGGAUAUGAUUUGUAAAUUCGAUCAGAAGGGUGGAUGUCUUACACGGUUUGUUACAUGAGGAUCACCCAUGUC [SameState NG1 #12] (Eterna round: R96, puzzle: Same State NG 1)")
0.452
